B1: HDV Ribozyme (parent)
chain: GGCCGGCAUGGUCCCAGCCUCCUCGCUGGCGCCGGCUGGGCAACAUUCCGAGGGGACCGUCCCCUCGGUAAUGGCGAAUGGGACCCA

variants of: B1; experiment: self-cleavage, relative activity (ratio to wild type); higher = more cleavage; co-transcriptional
// false strictly below 0.9 in self-cleavage; true otherwise

Solved entries (count: 3):
G76U A77U: false
U23A G54A: true
A43C G67C: false

Record A16U A56U ; criterion: self-cleavage no lower than 0.9. Met?
true

Record C14A A71C ; criterion: self-cleavage no lower than 0.9. Met?
false
